Test system: MALME-3M melanoma
Assay: NCI tumour cell line growth inhibition, 48 h
quantity.name: TGI

TGI on MALME-3M melanoma for C/C=C(/C)C(=O)O[C@@H]1CCN2CC[C@H](COC(=O)/C(=C/C)CO)C12 (stereo partly drawn) is 84.2 µM

TGI on MALME-3M melanoma for OC1C#CCSCC#C/C=C\1 (stereo not drawn) is > 100 µM

TGI on MALME-3M melanoma for Cn1cc(C2=C(c3cn(CCCCO)c4ccccc34)C(=O)NC2=O)c2ccccc21 is > 25 µM

Quick batch: TGI for everything below.
1. CN1CCN(C(=S)N2CCN(C)CC2)CC1
2. CCOC(=O)Nc1ccc(-c2nc(-c3cccc(OCCN4CCOCC4)c3)c(-c3ccnc(Br)c3)[nH]2)cc1
3. NNC(=O)c1n[nH]nc1C(=O)NN

Response given:
["> 100 µM", "3.46 µM", "33.1 µM"]

Quick batch: TGI for everything below.
1. COc1ccc(NC(=O)/C(Cc2cc(=O)oc3cc(O)ccc23)=N\NC(C)(C)C)c(OC)c1
2. Cc1nn(-c2ccc(Cl)cc2)c2nc3c(nc12)C(=O)c1ccccc1-3

Response given:
> 100 µM
> 100 µM

Recorded values, source PubChem BioAssay (NCI).
